Where do the numbers come from? From paper PMC6522510.

- Tested on: ML-2
- Design: species or system AML cell lines (8); Primary HTS, single concentration about 10 uM, Cell Titer Glo viability; log10 luminescence, per cent inhibition relative to cycloheximide control
- reportedConditions: 72 h, relative to cycloheximide control, log10 luminescence; inhibitor
Square brackets hold non-standard residues; d marks the D form. Peptide text beside a SMILES is read from it. Nle = CCCC[C@H](N)C(=O)O
parameterMeasured: ML-2 %inh (%)
Entry rule: numbers only, all in %.

Examples with their reported ML-2 %inh follow.
Nc1c(C(=O)c2ccc(CCCN3CCOCC3)cc2)cnn1-c1ccc(F)cc1 = 1.663
O=S(=O)(CCOCc1ccc(-c2ccc3ncnc(Nc4ccc(OCc5cccc(F)c5)c(Cl)c4)c3c2)o1)c1ccccc1 = -0.1863

Ask: Which value of ML-2 %inh has been reported for CCCC[C@@H](C=O)NC(=O)[C@H](CC(C)C)NC(=O)[C@H](CC(C)C)NC(C)=O [SJ000772397-1, MG 101 | ALLN] (Ac-Leu-Leu-[Nle]-aldehyde) in the records?
Reply: 57.14

---

This section presents compounds with their documented CMK %inh values.
- Tested on: CMK
- Design: species or system AML cell lines (8); Primary HTS, single concentration about 10 uM, Cell Titer Glo viability; log10 luminescence, per cent inhibition relative to cycloheximide control
- reportedConditions: 72 h, relative to cycloheximide control, log10 luminescence; inhibitor
Entry rule: numbers only, all in %.

Ask: Which value of CMK %inh has been reported for `COc1ccc(F)cc1C(=O)c1cnc(NC2CCN(S(C)(=O)=O)CC2)nc1N` in the records?
Reply: 28.45

Ask: Now give it for `C[C@@H](CS(C)(=O)=O)Nc1ncc2cc(Oc3ccc(F)cc3F)c(=O)n(C)c2n1` too.
Reply: 2.224

Ask: Now give it for `Fc1cccc(COc2ccc(Nc3ncnc4cc(-c5ccc[nH]5)sc34)cc2Cl)c1` too.
Reply: 115.2

Ask: Now give it for CC[N+](C)(CC)CCOC(=O)C(O)(c1ccccc1)C1CCCCC1 (stereo not shown) [SJ000555718-1, OXYPHENONIUM BROMIDE] too.
Reply: 0.4248

---

- Test system: M07e
- Parameters: species or system AML cell lines (8); Primary HTS, single concentration about 10 uM, Cell Titer Glo viability; log10 luminescence, per cent inhibition relative to cycloheximide control
- reportedConditions: 72 h, relative to cycloheximide control, log10 luminescence; inhibitor
parameterMeasured: M07e %inh (%)
Entry rule: numbers only, all in %.

Examples with their reported M07e %inh follow.
NC(=O)c1sc(-n2cnc3ccc(C(F)(F)F)cc32)cc1OCc1ccccc1Br = 5.031
CCC(=O)O[C@]1(C(=O)CCl)[C@@H](C)C[C@H]2[C@@H]3CCC4=CC(=O)C=C[C@]4(C)[C@@]3(F)[C@@H](O)C[C@@]21C [SJ000286006-4, CLOBETASOL PROPIONATE] = 3.893

Attention now turns to another entry.
Ask: Which value of M07e %inh has been reported for CC1=C(/C=C/C(C)=C/C=C/C(C)=C/C(=O)O)C(C)(C)CCC1O (stereo not drawn) [SJ000561070-1, 4-HYDROXYRETINOIC ACID] in the records?
Reply: 7.941

---

- System: CHRF288-11
- Set-up: species or system AML cell lines (8); Primary HTS, single concentration about 10 uM, Cell Titer Glo viability; log10 luminescence, per cent inhibition relative to cycloheximide control
- reportedConditions: 72 h, relative to cycloheximide control, log10 luminescence; inhibitor
Is CHRF288-11 %inh at least 6%? Then TRUE. If not, FALSE.

COc1cccc(C(=O)c2sc(Nc3ccc(N4CCN(C(C)C)CC4)cc3)nc2N)c1 [SJ000581014-1] = TRUE
COc1cc2ncn(-c3cc(O[C@@H](C)c4ccccc4Cl)c(C(N)=O)s3)c2cc1OC [SJ000573003-1, U20723/53/1 | U20723/56/1] = TRUE

Ask: Entry Nc1c(C(=O)c2cccc(-c3cccnc3)c2)cnn1-c1ccc(F)cc1F [SJ000581002-1] : is its CHRF288-11 %inh no less than 6%?
Reply: TRUE

Ask: Now give it for COc1cc2ncnc(Nc3ccc4c(cnn4Cc4ccccc4)c3)c2cc1OC [SJ000573101-1, R143/104/1] too.
Reply: FALSE

Ask: Now give it for COC(=O)Nc1nc2cc(Oc3ccc(NC(=O)Nc4cccc(C(=O)O)c4)cc3)ccc2[nH]1 [SJ000573163-1, T261/87/3] too.
Reply: TRUE

Ask: Now give it for CCS(=O)(=O)c1ccc(OC)c(Nc2ncc(-c3cccc(-c4ccccc4F)c3)o2)c1 [SJ000573133-1, U16399/42/1] too.
Reply: FALSE

Ask: Now give it for Cc1nc(-c2ccccc2)n2nc(NCCCN3CCOCC3)ncc12 [SJ000573136-1, U19891/100/1] too.
Reply: TRUE

---

- Tested on: MV4-11
- Design: species or system AML cell lines (8); Primary HTS, single concentration about 10 uM, Cell Titer Glo viability; log10 luminescence, per cent inhibition relative to cycloheximide control
- reportedConditions: 72 h, relative to cycloheximide control, log10 luminescence; inhibitor
parameterMeasured: MV4-11 %inh (%)
Entry rule: numbers only, all in %.

O=c1c(Oc2ccc(F)cc2F)cc2cnc(NC3CCOCC3)nc2n1CCCO = 3.176
COC(=O)Nc1nc2cc(Oc3ccc(NC(=O)Nc4cccc(C(=O)O)c4)cc3)ccc2[nH]1 = 11.57
O=C(/C=C/c1ccc(CN(CCO)CCc2c[nH]c3ccccc23)cc1)NO = 78.77
Nc1nc(-c2ccccn2)c(-c2ccc3ncccc3n2)s1 = -2.996
COc1cc(C(C)C)c2c(c1)S(=O)(=O)N(COc1cc(=O)n3cccc(OCCN4CCCCC4)c3n1)C2=O = 4.165
COc1ccc(C2=C(N3CCc4ccccc43)C(=O)NC2=O)cc1 = 5.926

Ask: Which value of MV4-11 %inh has been reported for `Cn1cc(C2=C(c3ccc4ccccc4c3)C(=O)NC2=O)c2ccccc21` in the records?
Reply: 1.463

Ask: Now give it for `Cn1cc(C2=C(c3cn(C)c4ccccc34)C(=O)NC2=O)c2ccccc21` too.
Reply: 62.31

---

This section presents molecules with their documented MOLM-13 %inh values.
- Tested on: MOLM-13
- Design: species or system AML cell lines (8); Primary HTS, single concentration about 10 uM, Cell Titer Glo viability; log10 luminescence, per cent inhibition relative to cycloheximide control
- reportedConditions: 72 h, relative to cycloheximide control, log10 luminescence; inhibitor
Entry rule: numbers only, all in %.

Examples with their reported MOLM-13 %inh follow.
O=C1[C@H](CC[C@H](O)c2ccc(F)cc2)[C@@H](c2ccc(O)cc2)N1c1ccc(F)cc1 = 5.807
Clc1ccc(-c2nc3sccn3c2/C=N/OCc2ccc(Cl)c(Cl)c2)cc1 = -1.049
CCOC(=O)c1ncn2c1CN(C)C(=O)c1cc(F)ccc1-2 = -0.5944
CN(c1ccc(NC(=O)Nc2ccc(OC(F)(F)F)cc2)cc1)c1ccnc(Nc2cccc(S(N)(=O)=O)c2)n1 = 77.33
N#Cc1cccc(Nc2nccc(-c3cnn4ncccc34)n2)c1 = 98.39

Ask: Which value of MOLM-13 %inh has been reported for `CCn1c(-c2nonc2N)nc2cnc(Oc3cccc(NC(=O)c4ccc(OCCN5CCOCC5)cc4)c3)cc21` in the records?
Reply: 15.66

Ask: Now give it for `COc1cc2ncnc(Nc3ccc4c(cnn4Cc4ccccc4)c3)c2cc1OC` too.
Reply: 25.02

---

- assayText: Pharmacokinetics of ruxolitinib, single oral dose, plasma LC-MS/MS
- Assay type: in vivo, mice
- reportedConditions: mouse, BoyJ, Female, 60 mg kg−1 oral gavage
parameterMeasured: AUC(0-t) (µM·h)
Entry rule: numbers only, all in µM·h.

Ask: Which value of AUC(0-t) has been reported for N#CC[C@H](C1CCCC1)n1cc(-c2ncnc3[nH]ccc23)cn1 [Ruxolitinib, ruxolitinib] in the records?
Reply: 16.8

---

- System: CHRF288-11
- Parameters: species or system AML cell lines (8); Primary HTS, single concentration about 10 uM, Cell Titer Glo viability; log10 luminescence, per cent inhibition relative to cycloheximide control
- reportedConditions: 72 h, relative to cycloheximide control, log10 luminescence; inhibitor
This section presents compounds with their documented CHRF288-11 %inh values.
Entry rule: numbers only, all in %.

CCn1c(-c2nonc2N)nc2c(C#CC(C)(C)O)nc(OC[C@@H](N)c3ccccc3)cc21 [SJ000573312-1, LS204454-145A1 | LS204454-146A1] = 122.3
[O-][S+]1CCN(Cc2ccc(-c3ccc4ncnc(Nc5ccc(OCc6ccccc6)c(F)c5)c4c3)o2)CC1 [SJ000573188-1, U14859/145/2] = 1.525
C[C@@H](Cn1ncnn1)Nc1ncc2cc(Oc3ccc(F)cc3F)c(=O)n(C)c2n1 [SJ000580957-1] = 0.5625

Attention now turns to another entry.
Ask: Which value of CHRF288-11 %inh has been reported for O=c1c(Oc2ccc(F)cc2F)cc2cnc(NC3CCOCC3)nc2n1C1CC1 [SJ000581039-1] in the records?
Reply: 6.117
